The measurements presented in this section are drawn from paper PMC8348901.

tested on: S. aureus ATCC 25923; assay: Oxacillin MIC reduction (adjuvant) microdilution assay; assay type: cell-based, Staphylococcus aureus; conditions: MIC(OXA)/MIC(OXA+Cpd), compound 0.5 mM, adjuvant activity if A ≥ 4
We begin with a simple list: items and their reported Activity Gain [A].

Notebook: pull reported Activity Gain [A] for S. aureus ATCC 25923, entry CCOP(=O)(OCC)[C@H]1[C@H](c2ccccc2)C(=O)N1C (relative stereo) [trans-10a]
1

Hi! What's the reported Activity Gain [A] for CCOP(=O)(OCC)[C@@H]1[C@H](c2ccccc2F)C(=O)N1Cc1ccccc1 (relative stereo) [cis-11b] on S. aureus ATCC 25923?
1

Record CCOP(=O)(OCC)[C@@H]1[C@H](c2ccccc2)C(=O)N1Cc1ccccc1 (relative stereo) [cis-11a] : what is its Activity Gain [A] with S. aureus ATCC 25923?
0.5

Request body: readout Activity Gain [A], system S. aureus ATCC 25923, query CCOP(=O)(OCC)[C@H]1[C@H](c2ccc(F)cc2F)C(=O)N1Cc1ccccc1 (relative stereo) [trans-11e] . Return the value.
0.5

Short answer please: Activity Gain [A], S. aureus ATCC 25923, entry CCOP(=O)(OCC)[C@H]1[C@H](c2cccc(F)c2)C(=O)N1C (relative stereo) [trans-10c]
0.5

----------
system: NCI-H460 (lung carcinoma); test: Cytostatic activity (cell proliferation); format: cell-based
VALUE TYPE: pIC50
Notebook: values listed as pIC50 are -log10 of the concentration (mol/L).

Need pIC50, item CCOP(=O)(OCC)[C@H]1[C@H](c2ccccc2)C(=O)N1C (relative stereo) [trans-10a]
4.26

Others:
Give its pIC50 value. Item: CN[C@@H]1C[C@H]2O[C@@](C)([C@@H]1OC)n1c3ccccc3c3c4c(c5c6ccccc6n2c5c31)C(=O)NC4 [Stauroporine, reference compound]
4.94

----------
Let's look at some compounds and their measured Activity Gain [A].
tested on: S. aureus ATCC 25923; test: Oxacillin MIC reduction (adjuvant) microdilution assay; format: cell-based, Staphylococcus aureus; conditions: MIC(OXA)/MIC(OXA+Cpd), compound 0.5 mM, adjuvant activity if A ≥ 4
# answer = number (no unit)

See these solved cases before continuing.
Name the recorded Activity Gain [A] for CCOP(=O)(OCC)[C@H]1[C@H](c2ccc(F)cc2)C(=O)N1Cc1ccccc1 (relative stereo) [trans-11d] .
0.5

Requested read-out: Activity Gain [A]. Entry: CCOP(=O)(OCC)[C@@H]1[C@H](c2ccc(F)cc2F)C(=O)N1C (relative stereo) [cis-10e]
1

Would you mind telling me what Activity Gain [A] value was observed for CCOP(=O)(OCC)[C@H]1[C@H](c2ccc(F)c(C)c2)C(=O)N1C (relative stereo) [trans-10f] ?
0.5

Consider now this further compound.
What does the data say about its Activity Gain [A]? Entry: CCOP(=O)(OCC)[C@H]1[C@H](c2ccc(F)c(C)c2)C(=O)N1Cc1ccccc1 (relative stereo) [trans-11f]
0.5

----------
test system: influenza A virus H1N1 subtype; assay: Antiviral assay, influenza A virus H1N1 subtype in MDCK cells; assay type: cell-based, influenza A virus H1N1 (A/PR/8); settings: H1N1, MDCK, read-out: EC50 by TMS score, influenza A virus H1N1
pEC50: recorded values
Worth noting: pEC50 values are minus log10 of concentrations stated in mol/L.

Item under review: CCOP(=O)(OCC)[C@@H]1[C@H](c2ccc(F)c(C)c2)C(=O)N1Cc1ccccc1 (relative stereo) [cis-11f] . Reported pEC50?
5.08

Now turn to the next compound.
Item under review: NC(=O)c1ncn([C@@H]2O[C@H](CO)[C@@H](O)[C@H]2O)n1 [ribavirin, reference compound] . Reported pEC50?
5.18

----------
// reported Activity Gain [A] for each item listed
system: MRSA HEMSA 5; assay: Oxacillin MIC reduction (adjuvant) microdilution assay; format: cell-based, Staphylococcus aureus; settings: MIC(OXA)/MIC(OXA+Cpd), compound 0.5 mM, adjuvant activity if A ≥ 4
API note: the answer field is a bare number with no unit suffix.

Solved cases (2 shown):
Item CCOP(=O)(OCC)[C@@H]1[C@H](c2ccc(F)cc2F)C(=O)N1Cc1ccccc1 (relative stereo) [cis-11e] has what recorded Activity Gain [A]?
1

For the compound shown here, CCOP(=O)(OCC)[C@H]1[C@H](c2cccc(F)c2)C(=O)N1C (relative stereo) [trans-10c] , give the reported Activity Gain [A].
1

Let's switch to this compound now.
Sample CCOP(=O)(OCC)[C@H]1[C@H](c2ccccc2)C(=O)N1C (relative stereo) [trans-10a] — what was its Activity Gain [A]?
1

----------
Tested on: DND-41 (acute lymphoblastic leukemia)
Assay: Cytostatic activity (cell proliferation)
Format: cell-based
Method: […] All assays were performed in 96-well microtiter plates. […] At the end of the incubation period, the cells were counted in a Coulter counter. […]
Listing of entries alongside the reported IC50.

Record lookup: for DND-41 (acute lymphoblastic leukemia), what IC50 belongs to CN[C@@H]1C[C@H]2O[C@@](C)([C@@H]1OC)n1c3ccccc3c3c4c(c5c6ccccc6n2c5c31)C(=O)NC4 [Stauroporine, reference compound] ?
21.5 µM

Notebook: pull reported IC50 for DND-41 (acute lymphoblastic leukemia), entry CCOP(=O)(OCC)[C@H]1[C@H](c2ccccc2)C(=O)N1C (relative stereo) [trans-10a]
> 100 µM

Could you now look at the following compound, please?
Look up IC50 with DND-41 (acute lymphoblastic leukemia) for this compound: CCOP(=O)(OCC)[C@@H]1[C@H](c2ccccc2)C(=O)N1C (relative stereo) [cis-10a]
> 100 µM

----------
Catalogue of CC50 values
assay: in vitro; details: dog

CC50 for CCOP(=O)(OCC)[C@@H]1[C@H](c2ccc(F)c(C)c2)C(=O)N1Cc1ccccc1 (relative stereo) [cis-11f] ?
39.9 µM

Then this compound:
Item NC(=O)c1ncn([C@@H]2O[C@H](CO)[C@@H](O)[C@H]2O)n1 [ribavirin, reference compound] has what recorded CC50?
≥ 100 µM

----------
test system: NCI-H460 (lung carcinoma); experiment: Cytostatic activity (cell proliferation); type: cell-based; conditions: Homo sapiens, NCI-H460
# reported pIC50; entries follow
Note on units: pIC50 is unitless, being -log10 of a concentration expressed in mol/L.

Worked cases, pIC50 given:
Requested field: pIC50. Item: CCOP(=O)(OCC)[C@@H]1[C@H](c2ccc(F)cc2)C(=O)N1Cc1ccccc1 (relative stereo) [cis-11d]
4.34

// lookup pIC50 for CCOP(=O)(OCC)[C@H]1[C@H](c2ccccc2)C(=O)N1Cc1ccccc1 (relative stereo) [trans-11a]
4.29

Which pIC50 is reported for this compound? CCOP(=O)(OCC)[C@H]1[C@H](c2cccc(F)c2)C(=O)N1C (relative stereo) [trans-10c]
4.20

Which value of pIC50 has been reported for CCOP(=O)(OCC)[C@H]1[C@H](c2ccc(F)cc2F)C(=O)N1Cc1ccccc1 (relative stereo) [trans-11e] in the records?
4.61

// returns reported pIC50 for input CCOP(=O)(OCC)[C@H]1[C@H](c2ccccc2F)C(=O)N1C (relative stereo) [trans-10b]
4.46

Report pIC50 for CCOP(=O)(OCC)[C@@H]1[C@H](c2ccc(F)c(C)c2)C(=O)N1C (relative stereo) [cis-10f] please.
4.06

Need pIC50, item CCOP(=O)(OCC)[C@H]1[C@H](c2ccc(F)cc2)C(=O)N1C (relative stereo) [trans-10d]
4.38

Form field: reported pIC50 of CCOP(=O)(OCC)[C@@H]1[C@H](c2ccccc2F)C(=O)N1Cc1ccccc1 (relative stereo) [cis-11b]
4.14

Others:
Which pIC50 value belongs to CCOP(=O)(OCC)[C@H]1[C@H](c2ccc(F)cc2F)C(=O)N1C (relative stereo) [trans-10e] ?
4.17

Would you kindly share the measured pIC50 for CCOP(=O)(OCC)[C@H]1[C@H](c2cccc(F)c2)C(=O)N1Cc1ccccc1 (relative stereo) [trans-11c] ?
4.35

# get_value(readout='pIC50', item= CCOP(=O)(OCC)[C@H]1[C@H](c2ccc(F)c(C)c2)C(=O)N1C (relative stereo) [trans-10f] )
4.22

What value of pIC50 has been recorded for this entry: CCOP(=O)(OCC)[C@H]1[C@H](c2ccc(F)c(C)c2)C(=O)N1Cc1ccccc1 (relative stereo) [trans-11f]
4.43

Report pIC50 for CCOP(=O)(OCC)[C@H]1[C@H](c2ccccc2F)C(=O)N1Cc1ccccc1 (relative stereo) [trans-11b] please.
4.25

// returns reported pIC50 for input CCOP(=O)(OCC)[C@H]1[C@H](c2ccc(F)cc2)C(=O)N1Cc1ccccc1 (relative stereo) [trans-11d]
4.55

Requested read-out: pIC50. Entry: CCOP(=O)(OCC)[C@@H]1[C@H](c2ccccc2F)C(=O)N1C (relative stereo) [cis-10b]
4.34

Look up pIC50: CCOP(=O)(OCC)[C@@H]1[C@H](c2ccc(F)cc2)C(=O)N1C (relative stereo) [cis-10d]
4.15

Recorded pIC50 of CCOP(=O)(OCC)[C@@H]1[C@H](c2ccccc2)C(=O)N1Cc1ccccc1 (relative stereo) [cis-11a] , please.
4.10
